Biological target: human clotting factor VIIa (Homo sapiens)
Sequence (P08709 213-466 limits assumed): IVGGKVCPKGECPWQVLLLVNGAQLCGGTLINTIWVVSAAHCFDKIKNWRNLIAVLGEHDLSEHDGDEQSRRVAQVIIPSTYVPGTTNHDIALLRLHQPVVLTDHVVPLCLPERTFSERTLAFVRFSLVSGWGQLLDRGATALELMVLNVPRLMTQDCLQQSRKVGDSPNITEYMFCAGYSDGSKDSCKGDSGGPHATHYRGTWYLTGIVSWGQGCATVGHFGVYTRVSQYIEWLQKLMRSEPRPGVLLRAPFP
Sequence (P08709 61-212 limits assumed): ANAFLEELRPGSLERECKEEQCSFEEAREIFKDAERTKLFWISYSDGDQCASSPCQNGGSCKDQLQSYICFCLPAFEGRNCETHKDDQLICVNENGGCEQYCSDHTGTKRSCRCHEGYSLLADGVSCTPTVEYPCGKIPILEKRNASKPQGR
Sequence (P13726 33-295 partner): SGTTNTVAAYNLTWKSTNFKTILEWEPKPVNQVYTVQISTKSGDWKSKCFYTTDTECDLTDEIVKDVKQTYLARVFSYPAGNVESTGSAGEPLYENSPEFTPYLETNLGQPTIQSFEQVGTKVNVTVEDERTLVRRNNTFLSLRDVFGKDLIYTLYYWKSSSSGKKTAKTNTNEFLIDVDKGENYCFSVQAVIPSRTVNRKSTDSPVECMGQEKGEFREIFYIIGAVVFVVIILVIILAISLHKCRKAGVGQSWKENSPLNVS
Where a name gives a salt, the structure may show the parent alone.
Note to self: use Y only for IC50 readings below 8 nM; a reading exactly at 8 nM still gets N.

Some entries whose results are on file:
Does the reported IC50 of COc1cc(OCCCO)c(F)c(C(Nc2ccc(C(=N)N)cc2)c2nn(-c3[nH]ncc3C(=O)O)c(=O)[nH]2)c1 (single isomer, unassigned) [Example 198, acetate] stay below 8 nM? N

Does the reported IC50 of CCOc1cc(OCCF)c(F)c(C(Nc2ccc(C(=N)N)cc2)c2nn(-c3ncccn3)c(=O)[nH]2)c1 (racemic) [Example 68, acetate] stay below 8 nM? Y

Does the reported IC50 of COc1cc(C(Nc2ccc(C(=N)N)cc2)c2nn(-c3ccsc3C(=O)O)c(=O)[nH]2)c(F)c2c1OCCC2 (racemic) stay below 8 nM? Y

Does the reported IC50 of CCOc1cc(COC)cc(C(Nc2ccc(C(=N)N)cc2)c2nn(-c3ncccn3)c(=O)[nH]2)c1 (stereo not drawn) [Example 83, acetate] stay below 8 nM? N

Does the reported IC50 of COc1cc(C(Nc2ccc(C(=N)N)cc2)c2nn(-c3ncccc3N)c(=O)[nH]2)c(F)c2c1OCCC2 (stereo not drawn) [Example 209, trifluoroacetate] stay below 8 nM? Y

We next turn to a different molecule, shown below.
Does the reported IC50 of COc1cc(F)c(C(Nc2ccc(C(=N)N)cc2)c2nn(-c3ccccc3C(=O)O)c(=O)[nH]2)cc1OC (racemic) [Example 1, acetate] stay below 8 nM? Y
